target_or_test_system: UniProtKB Q9GZR1
Sequence (Q9GZR1 whole entry): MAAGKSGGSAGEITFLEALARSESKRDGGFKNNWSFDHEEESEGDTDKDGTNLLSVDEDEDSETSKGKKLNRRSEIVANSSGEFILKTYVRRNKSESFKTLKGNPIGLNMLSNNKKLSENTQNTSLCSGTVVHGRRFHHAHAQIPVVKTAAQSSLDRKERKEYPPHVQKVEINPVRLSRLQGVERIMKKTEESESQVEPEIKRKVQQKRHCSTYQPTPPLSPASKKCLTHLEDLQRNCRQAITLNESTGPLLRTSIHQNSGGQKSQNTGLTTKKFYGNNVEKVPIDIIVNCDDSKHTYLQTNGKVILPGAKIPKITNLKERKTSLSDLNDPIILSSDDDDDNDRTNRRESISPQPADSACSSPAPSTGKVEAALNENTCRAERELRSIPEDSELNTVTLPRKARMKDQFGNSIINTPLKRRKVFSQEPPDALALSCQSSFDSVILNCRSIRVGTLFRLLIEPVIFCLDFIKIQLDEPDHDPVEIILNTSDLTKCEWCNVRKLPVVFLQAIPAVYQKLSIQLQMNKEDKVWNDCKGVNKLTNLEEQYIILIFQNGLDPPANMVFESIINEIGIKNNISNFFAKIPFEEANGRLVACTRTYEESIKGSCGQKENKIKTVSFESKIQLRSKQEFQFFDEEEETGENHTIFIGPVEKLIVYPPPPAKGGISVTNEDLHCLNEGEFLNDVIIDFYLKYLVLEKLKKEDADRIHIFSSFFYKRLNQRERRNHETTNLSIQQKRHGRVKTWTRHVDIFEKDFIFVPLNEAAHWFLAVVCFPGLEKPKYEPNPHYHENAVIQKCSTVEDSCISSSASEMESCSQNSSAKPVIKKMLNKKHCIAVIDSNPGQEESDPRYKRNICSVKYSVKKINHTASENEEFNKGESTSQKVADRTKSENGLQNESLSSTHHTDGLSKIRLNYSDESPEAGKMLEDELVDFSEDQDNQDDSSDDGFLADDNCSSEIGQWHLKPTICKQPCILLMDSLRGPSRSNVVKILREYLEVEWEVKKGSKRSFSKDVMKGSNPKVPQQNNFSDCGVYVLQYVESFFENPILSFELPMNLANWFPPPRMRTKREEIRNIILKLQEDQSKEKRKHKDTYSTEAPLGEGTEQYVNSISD
Type: functional
Activity calls are given as the source filed them.
Allowed answers: True (active), False (inactive)

For orientation, consider the following solved cases.
CCOc1ccc(-n2nc3cc(C)c(N)cc3n2)cc1    True
COc1ccc(C(=O)c2nccc3cc(OC)c(OC)cc23)cc1OC    True
COc1ccc2c(C#N)c3ccccn3c2c1    True
NC(=O)c1ccccc1OCC(=O)Nc1ccc(Cl)c(Cl)c1    False
O=C(CCCN1C(=O)S/C(=C/c2ccccc2)C1=S)Nc1ccc(C(=O)O)cc1    True
O=C(O)c1cccc(NC(=O)c2cccc(S(=O)(=O)N3CCc4ccccc43)c2)c1    True

Pending molecule:
Problem: Please indicate how the test categorized `CCOc1cccc(C(=O)Nc2ccc3ccccc3c2)c1` .
Solution: True

Reference for the values: ChEMBL document CHEMBL1201862
